The origin of these recorded values is PubChem BioAssay (NCI).

System: NCI-H23 lung
Assay: NCI tumour cell line growth inhibition, 48 h
property.name: TGI (µM)
Give the number; µM is assumed, so skip it.

| molecule.smiles | endpoint.result |
| --- | --- |
| CCn1sc2ccccc2c1=O | 34.7 |

Query O=C(c1cccs1)N(C(=O)N1CCN(c2ccccc2)CC1)S(=O)(=O)c1ccccc1 yields TGI of 59.5

GET /value?item= Cc1ccccc1N/C(=C(/C(Cl)=C(Cl)Cl)[N+](=O)[O-])n1nnc2ccccc21 &field=TGI returns 33.3

* * *

System: HT29 colon
Assay: NCI tumour cell line growth inhibition, 48 h
Listed here: items and their measured TGI.
Reply numerically in µM, unit not repeated.

| compound | endpoint.result |
| --- | --- |
| CN(C)CCNC(=O)c1ccc2nc3c(nc2c1)C(=O)c1ccccc1-3 | 81.5 |
| C=C1C(=O)O[C@H]2[C@H]1CC/C(COC(=O)/C=C\C(=O)NCc1ccc(Cn3c(=O)sn(CCCC)c3=O)cc1)=C\CC[C@@]1(C)O[C@@H]21 | 2.07 |
| O=C(Oc1cccnc1)c1cc2cc(CCl)ccc2oc1=O | 39.9 |
| CC1C[C@]2(C)C(=NCCN)Nc3ccccc3[C@@H]2N(C)c2ccccc21 (some centres not stated) | 13.2 |
| C1=C\COCc2cc(ccc2OCCN2CCCC2)Nc2nccc(n2)-c2cccc(c2)COC/1 | 5.04 |
| CCCCCOc1ccc(/C=N/Nc2cc(C)nc3ccc(Br)cc23)cc1 | 4.24 |
| COc1c[c]([Hg][O]C(C)=O)c(OC)c(NC(=O)CC(C)=O)[c]1[Hg][O]C(C)=O | 19.6 |
| COc1ccc2c(c1)nc1n2C(c2c(Cl)cccc2Cl)SC1 (configuration not stated) | 85.9 |

// moving on: another record for TGI
Sure, the documented TGI for O=C(/C=C/c1ccc(OCc2cccc(Cl)c2)cc1)NO is 28.2
